B1: SMOC2 (parent)
chain: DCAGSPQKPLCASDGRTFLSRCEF

# Variants of: B1
# Protocol Description: protein stability index of a GFP-peptide fusion (GPS, HEK-293T) (PSI 1-6); higher = more stable;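 note: lentivirally expressed fusions sorted by FACS into six bins by GFP to DsRed ratio, PSI derived from sequencing read proportions per bin multiplied by bin number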
# Recorded Conditions: c terminus: a fixed tail appended
Recorded Metric: protein stability index
Kindly provide the number alone.

Q) Item under review: L19H . Reported protein stability index?
A) 3.82

Q) What value of protein stability index has been reported for the following variant? G15T
A) 2.65

Q) # protein stability index lookup, item G15V
A) 2.03
